Test: Solubility of the compound in water
Assay type: physicochemical
Conditions: buffer
value-type: solubility (mg/mL)
Please respond with the number in mg/mL and leave the unit unwritten.

Consider the worked cases shown below.
[[record]]
smiles_text = "CN[C@H]1CCc2cc(OC)c(OP(=O)(O)O)c(OC)c2-c2ccc(SC)c(=O)cc21"
value_type = "solubility"
measurement = 15

[[record]]
smiles_text = "CCN(CC)[C@H]1CCc2cc(OC)c(OC)c(OC)c2-c2ccc(SC)c(=O)cc21.O=C(O)CCC(=O)O"
value_type = "solubility"
measurement = 107

[[record]]
smiles_text = "COc1cc2c(c(OC)c1OC)-c1ccc(SC)c(=O)cc1[C@@H](N(C)C)CC2.O=C(O)CCC(=O)O"
value_type = "solubility"
measurement = 103


Let's switch to this molecule now.
Challenge: What value of solubility has been recorded for this entry: `CN[C@H]1CCc2cc(OC)c(O)c(OC)c2-c2ccc(SC)c(=O)cc21.O=C(O)CCC(=O)O`
Response given: 95
